# tested.target: JMJD2C (Homo sapiens (Human))
# Sequence (Q9H3R0 2-372): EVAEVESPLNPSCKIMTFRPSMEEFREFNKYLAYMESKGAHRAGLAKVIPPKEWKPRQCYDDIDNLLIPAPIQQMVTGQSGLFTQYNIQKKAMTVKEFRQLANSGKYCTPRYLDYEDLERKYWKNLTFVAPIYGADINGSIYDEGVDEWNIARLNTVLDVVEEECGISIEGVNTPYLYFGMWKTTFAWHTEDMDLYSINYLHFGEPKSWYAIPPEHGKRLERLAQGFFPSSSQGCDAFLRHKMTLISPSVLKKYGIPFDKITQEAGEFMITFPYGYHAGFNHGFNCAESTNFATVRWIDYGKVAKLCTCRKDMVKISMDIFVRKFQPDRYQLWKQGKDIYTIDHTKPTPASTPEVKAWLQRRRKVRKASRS
quantity.kind: IC50

COc1ccc2c(c1)CCC[C@H]2CNc1cnccc1C(=O)O
100 to 1000 nM

Request: Query IC50 on JMJD2C (Homo sapiens (Human)) for O=C(O)c1ccncc1NCC1CCOc2cc(C3CC3)ccc21 (stereo not shown)
Result: 100 to 1000 nM

Request: Query IC50 on JMJD2C (Homo sapiens (Human)) for "O=C(O)c1ccncc1NC[C@H]1CCOc2cc(-c3cccc(F)c3)ccc21"
Result: 100 to 1000 nM

Request: Query IC50 on JMJD2C (Homo sapiens (Human)) for "O=C(O)c1ccncc1NCc1cccc2ccccc12"
Result: ≤ 100 nM

Request: Query IC50 on JMJD2C (Homo sapiens (Human)) for "O=C(O)c1ccncc1NCc1ccc(C(F)(F)F)cc1C1CC1"
Result: 100 to 1000 nM
